tested on: K4 kissing-loop RNA reporter; assay: apparent KD of K4 kissing-loop reporter; higher = weaker reporter binding; details: Eterna round: R107; input ligand: FMN 200 uM;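 also: bound reporter read as fluorescence of individual clusters on recovered sequencing chips by microscopy, with normalized cluster intensities fitted with a binding model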
Use 200 nM as the dividing line for apparent KD of K4 kissing-loop reporter, with the line itself on the fulfilled side and lower values as not fulfilled.

UAGCGCAACCUGCUUACGUAUGAGCCGGAAGGAGCGGCAGAAUUGCCAGGUAGGUCGCCGGCCCAGUGAUGUUGGGAUGGUGUGG [Usritiis] :: fulfilled
AGAGUUAUGAGAGGAUAUGCGGCUAGUACUCAAAGAGUACUAGCAGCAGAGUGAUGUUCUGUGAAAGCAGAAGGUUCAUAACUCA [#06 K4 FMN B Same State] :: not fulfilled
AAAAGAAAGUCGGCCGCCACUCAACGCAGUGAUGUUGCAAGACAGAAGACCAGUGAUGUUGGCCAGAGGACCGGGACAAAAGGCC [Same State Typtophan B GF 4] :: fulfilled
CCAAUCUGUUACGAUACCAGUCAAAGAUAUUUUAUCAAUGCCCUCACCGAGUGAUGUUCGGACCCUUGGCAGCGUCUGGGAUAGG [ddfcmullin] :: not fulfilled
CAUUAAACUCAAACUAUUGGGUUUACGUUCCGAGGACCGGUACGGCCGCCACUCGGUCGAUGCUAUACCAUACGAGUGAUGUUCG [theeternabot_sameState_KL_Trp_A_1] :: fulfilled
UUAUAUAUAUCAGAUACCAGCAUAAUGGAAACAAAUUAUGUUAUGAGUGAUGUUCAUGUAUGCCCUUGGCAGCUGGUAUGGGUUU [KL-XTheo-B19] :: fulfilled
GGUAGCAUGGCGGCCGCCACUUACACCACGGCCCUUCUAGUGAUGUUAGAGUGGAUUAUUCCGUUAAGGACCGGGCCAUGCUACC :: fulfilled
AAUGUACAAGUGAUGUUUGUACUUUCCGAAGGAGCGUCAAAUAAGACAGGUAGGUCGCGGAUACUCUAAAUAAUCAGGUCAUUAA [JR_ExcArginiA_Sub019] :: not fulfilled
UGUCAUUGGUCGGCCGCCACUUGAAGGUCAAAGACCAUAGAGUGAUGUUCUAAGACGAAAGUCACAAGGACCGGGACCGAUGACU [TrypBS 3 #SwitchBubble #K4Middle] :: fulfilled
UGAUAGGACAGAAGGAGCGGUAGUGAUGUUACCAAAAGGUUAAGGUGUCAAAAGACACCCUACCAGGUAGGUCGCUGUCCUAUCU :: not fulfilled
GUAGACGUACCUUCAGUGAUGUUGAAGGAUACCAGAUGUUACCACAUCCCUUGGCAGCCUUGGGAUAACAGUGAGUUGGAAUAUG [Usrite] :: not fulfilled
AUUGUACAGGGAAGGAGCGUCGACCAGUGAUGUUGGAGUUAAAUACCAGUGAUGUUGGUUAGGCAGGUAGGUCGCCCUCAAGUAG [#10 K4 Arginine B Exclusion] :: not fulfilled
GUAGCACUUGAUAGUGAUGUUAUCAAGGGCAAGGAUAUCAUCUCAAUGAGAAGGUGUCCUUGAUAACUGCUACGGGAAUAUCCCA [Omei KL FMN A Exc D v6] :: fulfilled
CCAAUCUUUUACGAUACCAGUCUAAUAUAUUUAAUCAAAACCCUCGCCGAGUGAUGUUCGGACCCUUGGCAGCGUUUGCGAGAGG [xssgstkmullin] :: fulfilled
